assay: Activation of human HIF1alpha expressed in human U2OS cells assessed as increase in VEGF expression by RT-PCR analysis
pEC50: −log10 of the molar value.
PROPERTY_NAME: pEC50

| SMILES_NOTATION | TEST_VALUE |
| --- | --- |
| OCC1CCN(c2nc(-c3ccccn3)nnc2-c2ccccc2)CC1 | 4.92 |
| c1ccc(-c2cccc(CNc3nc(-c4ccccn4)nnc3-c3ccccc3)c2)cc1 | 5.59 |
| O=C(NCC1CC1)c1cc(-c2ccccc2)on1 | 4.67 |
| C[C@H](Nc1nc(-c2ccccn2)nnc1-c1ccccc1)C1CCCCC1 | 5.59 |
| CC(C)(C)c1ccc(CNc2nc(-c3ccccn3)nnc2-c2ccccc2)cc1 | 5.95 |
| c1ccc(-c2nnc(-c3ccccn3)nc2NCC2CCOCC2)cc1 | 5.08 |

A: c1ccc(-c2nnc(-c3ccccn3)nc2NCC2CC2)cc1
B: Cc1ccc(CNc2nc(-c3ccccn3)nnc2-c2ccccc2)cc1C
C: c1ccc(-c2nnc(-c3ccccn3)nc2NCCN2CCOCC2)cc1
Q: Provide the items ranked by increasing pEC50. Reply with the labels, ordered as the question asks.
A: C, A, B
(C: 5.00, A: 5.21, B: 5.73)

Origin of the recorded values: BindingDB's records for doi:10.1016/j.bmcl.2011.11.077
